# Tgt: von Willebrand factor (VWF) (Homo sapiens, UniProt P04275 P04275:764-2813)
# Assay Remarks: filter; Bmax 80%; 2 mM CaCl2, 37 C
# Protocol Conditions: tags: factor VIII free human purified VWF, Haematologic Technologies Inc; label: 5'-32P
Measurement Kind: Kd (nM)
One number for each entry, in nM.

Observe how each entry below is paired with its result.
ACGAACUGCCCUCUAUUAUUUGACGCACAGACGU (ssRNA, 2'-F C9,C10,C11,C24,G25,C26; rest 2'-OMe; 3' idT) [T90 vrt7] :: 42
ACGAACUGCCCUCGUAUUAUUUCGACGCACAGACGU (ssRNA, 2'-F C9,C10,C11,C26,C28,U36; ribo G27; rest 2'-OMe; 3' idT) [T89 vrt2] :: 12
ACGAACUGCCCUCUAUUAUUUGACGCACAGACGU (ssRNA, 2'-F C9,C10,C11,C24,G25,C26,U34; rest 2'-OMe; 3' idT) [T90 vrt6] :: 46

Endpoint output: Kd of ACGAACUGCCCUCGUUUCAUCGACGCACAGACGU (ssRNA, 2'-F C2,U7,C9,C10,C11,U12,C24,C26,C32,U34; ribo A1,G3,G8,A23,G25,A27,G33; rest 2'-OMe; 3' idT) [T86 vrt1] . Value?
0.9
